Cited source for all entries: patent US7030087B2

# System: P. aeruginosa
# Assay Comment: Bactericidal activity assay
# Assay type: cell-based, Pseudomonas aeruginosa type 1
# Condition Info: 1.2 × 10^−7 M Peptide; 5 × 105 P. aeruginosa
Reported Bactericidal Activity, % killing values for a set of substances
Parameter Measured: Bactericidal Activity, % killing (%)

{"Substance": "ANIKLSVEMKLFKRHLKWKIIVKLNDGRELSLD [βpep-8]", "Target System": "P. aeruginosa", "Assay Value": 0}
{"Substance": "SIQDLKVSLNLFRKQAKWKIIVKLNDGRELSLD [βpep-23]", "Target System": "P. aeruginosa", "Assay Value": 0}
{"Substance": "ANIKLSVEMKLFCRHLKCKIIVKLNDGRELSLD [βpep-10]", "Target System": "P. aeruginosa", "Assay Value": 0}
{"Substance": "SIQDLNVSMKLFRKQAKWKILVKLNDGRELSLD [βpep-17]", "Target System": "P. aeruginosa", "Assay Value": 0}
{"Substance": "SIQDLNVSMKLFRKQAKWKIIAKLNDGRELSLD [βpep-16]", "Target System": "P. aeruginosa", "Assay Value": 0}
{"Substance": "SIQDLNVSMKLFRKQAKWKIILKLNDGRELSLD [βpep-15]", "Target System": "P. aeruginosa", "Assay Value": 0}
{"Substance": "ANIKLSVEMKLFCY^DWKVCKHVKLNDGRELSLD [βpep-11]", "Target System": "P. aeruginosa", "Assay Value": 0}
{"Substance": "ANIKLSVEMKFFKRHLKWKIIVKLNDGRELSLD [βpep-12]", "Target System": "P. aeruginosa", "Assay Value": 0}

---

# Test system: endotoxin from E. coli 055:B5
# Assay Comment: Limulus amoebocyte lysate assay (E-TOXATE), endotoxin neutralization
# Type: biochemical
# Condition Info: Table 4; at the Ed
Could you mark each record satisfied if its Endotoxin Neutralization, % at the effective dose falls strictly under 30%, and not satisfied if it equals or exceeds it?

{"Substance": "ANIKLSVKWKAQKRFLKMSIIVKLNDGRELSLD [βpep-9]", "Target System": "endotoxin from E. coli 055:B5", "Category": "not satisfied"}
{"Substance": "SIQDLNVSMKLFRKQAKWKILVKLNDGRELSLD [βpep-17]", "Target System": "endotoxin from E. coli 055:B5", "Category": "satisfied"}
{"Substance": "SIQDLNLSMKLFRKQAKWKIIVKLNDGRELSLD [βpep-22]", "Target System": "endotoxin from E. coli 055:B5", "Category": "satisfied"}
{"Substance": "ANIKLSVEFKLFKRHLKWKIIFKLNDGREFSLD [βpep-13]", "Target System": "endotoxin from E. coli 055:B5", "Category": "satisfied"}
{"Substance": "ANIKLSVEMKLFCRHLKCKIIVKLNDGRELSLD [βpep-10]", "Target System": "endotoxin from E. coli 055:B5", "Category": "satisfied"}
{"Substance": "SIQDLNVSLKLFRKQAKWKIIVKLNDGRELSLD [βpep-21]", "Target System": "endotoxin from E. coli 055:B5", "Category": "not satisfied"}
{"Substance": "SIQKLNVSMKLFRKQAKWKIIVKLNDGRELSLD [βpep-19]", "Target System": "endotoxin from E. coli 055:B5", "Category": "satisfied"}
{"Substance": "ANIKLSVEMKLFKRHLKWKIIVKLNDGRELSLD [βpep-8]", "Target System": "endotoxin from E. coli 055:B5", "Category": "not satisfied"}
{"Substance": "SIQDLKVSLNLFRKQAKWKIIVKLNDGRELSLD [βpep-23]", "Target System": "endotoxin from E. coli 055:B5", "Category": "not satisfied"}
{"Substance": "SIQDLNVSMXLFRKQAKWKIIVKLNDGRELSLD [βpep-20]", "Target System": "endotoxin from E. coli 055:B5", "Category": "satisfied"}
{"Substance": "SIQDLNVSMKLFRKQAKWKIIAKLNDGRELSLD [βpep-16]", "Target System": "endotoxin from E. coli 055:B5", "Category": "satisfied"}
